Provide the reported pIC50 of each item.
Molecular target: T1, human amylin receptor 3 (AMY3) (human, UniProt P30988 25-474; O60896 24-148)
T1 construct: whole, on cells; the cAMP assay used the whole cells; also called AMY3 receptor; human AMY3 receptor
T1 sequence (looked up) 1: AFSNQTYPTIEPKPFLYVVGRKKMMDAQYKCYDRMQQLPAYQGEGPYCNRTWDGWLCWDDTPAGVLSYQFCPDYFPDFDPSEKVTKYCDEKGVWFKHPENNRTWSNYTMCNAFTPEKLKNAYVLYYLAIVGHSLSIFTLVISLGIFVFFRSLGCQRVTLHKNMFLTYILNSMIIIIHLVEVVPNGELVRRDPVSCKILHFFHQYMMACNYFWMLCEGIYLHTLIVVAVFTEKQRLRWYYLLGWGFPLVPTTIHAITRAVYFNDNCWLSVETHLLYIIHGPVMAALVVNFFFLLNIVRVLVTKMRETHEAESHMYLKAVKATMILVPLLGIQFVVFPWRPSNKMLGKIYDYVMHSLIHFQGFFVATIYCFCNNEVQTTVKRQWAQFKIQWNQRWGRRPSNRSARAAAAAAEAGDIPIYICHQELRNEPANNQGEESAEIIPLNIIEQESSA
T1 sequence (looked up) 2: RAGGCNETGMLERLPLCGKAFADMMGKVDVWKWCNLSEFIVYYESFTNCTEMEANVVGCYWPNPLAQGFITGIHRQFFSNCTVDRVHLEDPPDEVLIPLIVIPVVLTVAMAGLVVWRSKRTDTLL
Assay: displacement of 125I-rat amylin from crude membranes of HEK293 cells expressing human AMY3 (hCalcR + RAMP3)
No end group written: not given here.
Numbers only, as −log10 of the molar value.

Some solved cases for reference:
1. CNTATCATQRLANFLVHSSNNFK(mPEG40KD)PILPPTNVGSNTY-NH2 (ends and bridges not checked, also called Compound 32) [Cmpd 32, [K^24(mPEG40KD)]-Cmpd 14]; 6.95
2. CNTATCATQRLANFLVHSSNNFGPK(Y‑shaped‑mPEG40KD)LPPTNVGSNTY-NH2 (ends and bridges not checked, also called Compound 31) [Cmpd 31, [K^26(Y-shaped-mPEG40KD)]-Cmpd 12]; 5.95

Would you mind listing pIC50 for each of the following binders?
1. CNTATCATQRLANFLVHSSK(mPEG40KD)NFGPILPPTNVGSNTY-NH2 (ends and bridges not checked, also called Compound 28) [Cmpd 28, [K^21(mPEG40KD)]-Cmpd 11]
2. CNTATCATQRLANFLVHSSNNFGPILPPTNVGK(mPEG40KD)NTY-NH2 (ends and bridges not checked, also called Compound 41) [Cmpd 41, [K^34(mPEG40KD)]-Cmpd 38]
3. CNTATCATQRLANFLVHSSNNFGPILPK(mPEG40KD)TNVGSNTY-NH2 (ends and bridges not checked, also called Compound 36) [Cmpd 36, [K^29(mPEG40KD)]-Cmpd 18]

1: 6.41; 2: 7.11; 3: 7.33
